Species: Rattus norvegicus
Test Summary: DrugMatrix - Regimen: Daily Repeat
Format: toxicity, organism-based, Sprague-Dawley
Parameters: regimen Daily Repeat, gender Male, age 6-8 weeks
Condition Description: in vivo, po, 0 mg/kg, 72 h, tissue Blood, route oral GAVAGE, dose level Control, time 3 day, vehicle .5 % CMC
Recorded measurements of ABSOLUTE LYMPHOCYTE, one per entry
Result Type: ABSOLUTE LYMPHOCYTE (CELLS/uL)

Compound | Result Type | Readout Unit | Reported Result
CC(C)[C@H]1CC[C@H](C(=O)N[C@H](Cc2ccccc2)C(=O)O)CC1 [NATEGLINIDE] | ABSOLUTE LYMPHOCYTE | CELLS/uL | 9125.17
OC(CCN1CCCCC1)(c1ccccc1)C1CCCCC1 (stereo not given) | ABSOLUTE LYMPHOCYTE | CELLS/uL | 10913.67
Clc1ccc2c(c1)C(N1CCNCC1)=Nc1ccccc1O2 | ABSOLUTE LYMPHOCYTE | CELLS/uL | 13494.17
CNC(=C[N+](=O)[O-])NCCSCc1ccc(CN(C)C)o1 | ABSOLUTE LYMPHOCYTE | CELLS/uL | 12269.67
C[C@]1(Cn2ccnn2)[C@H](C(=O)O)N2C(=O)C[C@H]2S1(=O)=O | ABSOLUTE LYMPHOCYTE | CELLS/uL | 14453
CN1C(=O)COc2c(C(=O)NC3CN4CCC3CC4)cc(Cl)cc21 (stereo not given) | ABSOLUTE LYMPHOCYTE | CELLS/uL | 15937.67
C[C@](O)(CS(=O)(=O)c1ccc(F)cc1)C(=O)Nc1ccc(C#N)c(C(F)(F)F)c1 [(R)-BICALUTAMIDE] | ABSOLUTE LYMPHOCYTE | CELLS/uL | 13776.5
CC(=O)CC(c1ccccc1)c1c(O)c2ccccc2oc1=O (stereo not given) | ABSOLUTE LYMPHOCYTE | CELLS/uL | 11670.5
CO[C@H]1/C=C/O[C@@]2(C)Oc3c(C)c(O)c4c(c3C2=O)C2=NC3(CCN(CC(C)C)CC3)NC2=C(NC(=O)/C(C)=C\C=C\[C@H](C)[C@H](O)[C@@H](C)[C@@H](O)[C@@H](C)[C@H](OC(C)=O)[C@@H]1C)C4=O | ABSOLUTE LYMPHOCYTE | CELLS/uL | 12269.67
C#C[C@]1(O)CC[C@H]2[C@@H]3CCc4cc(OC)ccc4[C@H]3CC[C@@]21C | ABSOLUTE LYMPHOCYTE | CELLS/uL | 12269.67

Data origin: ChEMBL document CHEMBL3885881
